Reported LD50 values for the following compounds.
Tested on: Rattus norvegicus
Details: acute; oral; gavage

Data point: CC(C)CCCCCCOC(=O)CCCCC(=O)OCCCCCCC(C)C [Diisononyl adipate] ; LD50 = > 10000 mg/kg

Data point: Cc1cc(S(=O)(=O)[O-])c(N=Nc2c([O-])c(C(=O)O)cc3ccccc23)cc1Cl.[Ba+2] ; LD50 = ≥ 5000 mg/kg

***
Data point: Cc1cc(C)c(O)c(C)c1 ; LD50 = > 2000 mg/kg

Data point: CC(C)(C)c1cc(CCC(=O)OCCSCCOC(=O)CCc2cc(C(C)(C)C)c(O)c(C(C)(C)C)c2)cc(C(C)(C)C)c1O ; LD50 = > 5000 mg/kg

Data point: O=C(O)CCCCCCCCCCC(=O)O ; LD50 = > 17000 mg/kg

Data point: Cc1ccc2[nH]c3cc4c(=O)c5cc(C)ccc5[nH]c4cc3c(=O)c2c1 ; LD50 = ≥ 5000 mg/kg

###

Tested on: Rattus norvegicus
Settings: repeat dose other; oral
Reported LOAEL values for the following compounds.
Please give a number only; it is taken to be in mg/kg-day.

Record excerpt, results attached:
Data point: CCC(C)=O [Methyl ethyl ketone] ; LOAEL = 4570

Data point: CCOC(C)=O [Ethyl acetate] ; LOAEL = 360

Data point: O=[Se](=O)([O-])[O-] [Selenate] ; LOAEL = 0.33

Data point: CC(=O)[O-].CC(=O)[O-].[Pb+2] [Lead acetate] ; LOAEL = 80

***
Data point: C=CCl [Vinyl chloride] ; LOAEL = 1.7

###

Reported LD50 values for the following compounds.
Test system: Mus musculus
Conditions: acute; oral

Data point: CCCCCCCCCCCCCCCCCCOC(=O)CCSCCC(=O)OCCCCCCCCCCCCCCCCCC [Distearyl thiodipropionate] ; LD50 = > 2000 mg/kg

Data point: CCC(CC)C(C)COC(=O)c1ccccc1C(=O)OCC(C)C(CC)CC (centres undefined) ; LD50 = > 26000 mg/kg

Data point: CCCCCCCCCCCCOC(=O)CCSCCC(=O)OCCCCCCCCCCCC ; LD50 = > 2000 mg/kg

***
Data point: CC(C)COC(=O)C(C)C [Isobutyl isobutyrate] ; LD50 = > 6400 mg/kg

###

Reported LD50 values for the following molecules.
System: Oryctolagus sp.
Conditions: acute; dermal; New Zealand

Data point: CC(C)COP(=S)([S-])OCC(C)C.CC(C)COP(=S)([S-])OCC(C)C.[Zn+2] ; LD50 = > 20000 mg/kg

Data point: Cc1ccc(N(C)C)cc1 ; LD50 = > 2000 mg/kg

Data point: Cc1cccc([N+](=O)[O-])c1 ; LD50 = > 20000 mg/kg

Data point: Cc1cc(C)c(O)c(C)c1 ; LD50 = > 2000 mg/kg

Data point: CCOP(=S)(S)OCC ; LD50 = > 2000 mg/kg
